# assay details: in vitro
# applied conditions: human, hela cells, % viability
endpoint: viability at 28.5 h, 10 µM (%)
One number for each entry, in %.

Worked examples, 2 compounds total:
COc1cc(CN(C)Cc2cccc3ccccc23)c([N+](=O)[O-])cc1OC [CBK261850]: 89.3
O=C(O)CCCC(=O)Nc1ccc(Cc2ccncc2)cc1 [CBK300493]: 93.1

Provide viability at 28.5 h, 10 µM for all items below, preserving their order.
1. COC(=O)c1c(NC(=O)Cn2nc([N+](=O)[O-])c(Cl)c2C)sc2c1CCCC2 [CBK263047]
2. CN1C(=O)c2ccccc2OCCCCC[C@H]2[C@@H]1CCCN2C(=O)c1cc2c([nH]c1=O)CCC2 [CBK292034]
3. COc1ccccc1NC(=O)/C(=C\c1cccnc1)NC(=O)c1ccccc1 [CBK261649]
4. CN(C)C(=O)[C@@]1(O)CCC2(c3ccc(Cl)cc3)CCCN(C)C2C1 (stereo partly drawn) [CBK005234]
5. COc1ccc(CN2CC3CCCN3C[C@H]2C)cc1 (stereo partly drawn) [CBK285412]
6. NC[C@H]1CC[C@H](C(=O)N2CCC(c3ccncc3)CC2)CC1 [CBK283332]

A)
83.9
114
89.6
92.8
111
110

Q) Please give the measured viability at 28.5 h, 10 µM for this compound: COc1ccc(NC(=O)CC2NC3CCCCC3NC2=O)cc1 (stereo not drawn) [CBK266488]
A) 89.7

----------
# assay details: in vitro
# applied conditions: human, hela cells, % viability
endpoint: viability at 28.5 h, 10 µM (%)
Numbers only, in %.

O=C1CSC2(C(=O)Nc3ccc(Br)cc32)N1c1cccc([N+](=O)[O-])c1 (stereo not shown) [CBK093451]: 94.3

Provide viability at 28.5 h, 10 µM for all items below, preserving their order.
1. C#CCNC(=O)c1nn(Cc2ccc(CN3C(=O)CCC3=O)cc2)c2ccc(OC)cc12 [CBK048668]
2. CC(=O)c1c(C)n(O)c2ccc(Cl)cc2c1=O [CBK217746]
3. CC(C)c1ccccc1OCC(=O)N1CCCc2c(cnn2C)C1 [CBK285287]
4. CCCC/C=C/c1cncc(NC(C)CCCC(C)(C)O)n1 (stereo not shown) [CBK065505]
5. CC(=O)Nc1ccc(-c2ccc(COC3CCN(C(=O)OC(C)(C)C)CC3)cc2)cc1 [CBK138215]
6. OCCN1CC2(CCN(CCC(c3ccccc3)c3ccccc3)CC2)c2ccccc21 [CBK126765]

A)
[86.2, 107, 111, 104, 99.8, 88.9]

----------
For each entry below, report its viability at 28.5 h, 10 µM value.
# assay details: in vitro
# applied conditions: human, hela cells, % viability
Give bare numbers, in %.

Provide viability at 28.5 h, 10 µM for all items below, preserving their order.
1. CN1CCC(C(=O)NC(=O)NC2CCCCC2)CC1 [CBK034825]
2. CCn1cc(S(=O)(=O)NCc2ccc3[nH]c4c(c3c2)CCCC4)cn1 [CBK307225]
3. CCCCCc1c(C)nc(-c2ccccn2)nc1O [CBK017441]
4. CC(=O)NCC(=O)N1CC[C@@H]2NC(=O)CNC(=O)C3(CCCC[C@H]2C1)CCN(C(C)=O)CC3 [CBK292014]
5. COc1ccc(C)cc1NC(=S)NCc1cnn(C)c1 [CBK267025]
6. CC(C)(C)OC(=O)N1CCN(c2ncc([N+](=O)[O-])s2)CC1 [CBK000135]

A)
112
100
86.4
91.8
106
92.1

Provide viability at 28.5 h, 10 µM for all items below, preserving their order.
1. COc1ccc2oc(=O)c(C(=O)Nc3cccc(O)c3)cc2c1 [CBK270070]
2. Cc1ccc(S(=O)(=O)N(C)c2c(C)ccc(S(=O)(=O)N3CCN(C)CC3)c2C)cc1 [CBK265642]
3. Cc1noc(C)c1S(N)(=O)=O [CBK022939]
4. COc1ccc(Br)cc1S(=O)(=O)Nc1ccsc1C(=O)Nc1ccc(F)cc1 [CBK004593]
5. Cc1cc(C)c(S(=O)(=O)NCCN2CCN(S(=O)(=O)c3c(C)cc(C)cc3C)CC2)c(C)c1 [CBK265842]
6. O=C(Nc1cccc(F)c1C(=O)Nc1ccc(F)cc1F)c1cccs1 [CBK066849]

A)
1: 87.3; 2: 96.1; 3: 84.6; 4: 97.7; 5: 96; 6: 87.3

Provide viability at 28.5 h, 10 µM for all items below, preserving their order.
1. C[C@@H]1c2c(C(=O)OC(C)(C)C)ncn2-c2ccc(F)cc2N1CC(=O)N1CCCC1 [CBK016704]
2. CC(C)c1ccc(NS(=O)(=O)c2csc3ccnc(N4CCNCC4)c23)cc1 [CBK042343C]
3. Cn1c(SCc2ccccc2)nc2ccsc2c1=O [CBK288039]

A)
1: 85.3; 2: 95.8; 3: 82.1
